# run-description: recombinant UMI read abundance after kanamycin selection (control-corrected) (log10(CPM+1)); higher = more efficient recombination; extreme values may be limits of the assay; sequences stand for … in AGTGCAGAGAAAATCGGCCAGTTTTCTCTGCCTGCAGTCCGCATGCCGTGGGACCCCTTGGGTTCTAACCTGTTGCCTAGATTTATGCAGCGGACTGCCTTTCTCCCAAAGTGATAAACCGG…AGGTTGGTTTCACT; site = the 11-nt donor;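 note: IS621 bridge recombinase in Escherichia coli cells against a fixed T5 target plasmid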
Task for the reader: assign each of the following sequences its reported recombinant UMI read abundance (log10).
Give bare numbers.

# per-item lookup of recombinant UMI read abundance (log10); items listed below
1. CGAAAGGCATGGACCGGTTTTCCCGGTAATCCGTATTTGCT (site AGAAAGGCTAG)
2. CATCGTACATGGACCGGTTTTCCCGGTAATCCGTATTTGGT (site AGAGTGGCTTA)
3. ACACAGCCATGGACCGGTTTTCCCGGTAATCCGTATTTGTG (site ACACAGCCTCA)
4. AGCACAGCATGGACCGGTTTTCCCGGTAATCCGTATTTGGG (site AGCGCAGCTCC)

1. 0
2. 0.00765
3. 0.606
4. 0.0219
